Item-by-item account of IC50
- Test system: TNF-a formation from RAW 264.7 cells stimulated with LPS
- Condition details: Mus musculus, RAW264.7, read-out: IC50 (C) TNF-a formation in RAW 264.7
Return type: number; implicit unit µM.

Item: C=C(C)C1CCC2(C)C(C(=O)C=C3C4CC(C)(C(=O)OCc5ccccc5)CCC4(C)CCC32C)C1(C)CCC(=O)OC (centres unmarked) | IC50: 13.7

Measured IC50, O=c1c(-c2ccc(O)cc2)coc2cc(O)cc(O)c12 [Genistein, genistein, reference compound] : 26.5

----------
Attribute: % of inhibition of NO2− accumulation (in parentheses)
- System: accumulation of NO2− in RAW 264.7 cells stimulated with LPS
- Test: Nitrite (NO2−) accumulation in RAW 264.7 cells stimulated with LPS (Griess reaction)
- Assay type: cell-based, Murine
- Condition details: at the highest concentration; RAW 264.7, LPS

CC1(C(=O)O)CCC2(C)CCC3(C)C(=CC(=O)C4C5(C)CCC(=O)OC(C)(C)C5CCC43C)C2C1 (stereo not shown): 3.0 ± 4.2%
CC(C)NC(=O)C1(C)CCC2(C)CCC3(C)C(=CC(=O)C4C5(C)CCC(=O)OC(C)(C)C5CCC43C)C2C1 (stereo not shown): 30.0 ± 11.9%
C=C(C)C1CCC2(C)C(C(=O)C=C3C4CC(C)(C(=O)OC(C)C)CCC4(C)CCC32C)C1(C)CCC(=O)OC (stereo not shown): 43.0 ± 4.3%

// recorded % of inhibition of NO2− accumulation (in parentheses) for C=C(C)C1CCC2(C)C(C(=O)C=C3C4CC(C)(C(=O)OC)CCC4(C)CCC32C)C1(C)CCC(=O)OC (stereo not shown) : 44.3 ± 10.5%

Given item C=C(C)C1CCC2(C)C(C(=O)C=C3C4CC(C)(C(=O)OCc5ccccc5)CCC4(C)CCC32C)C1(C)CCC(=O)OC (stereo not shown) , the value recorded as its % of inhibition of NO2− accumulation (in parentheses) is 44.5 ± 4.2%

Per the record, CC1(C(=O)OCc2ccccc2)CCC2(C)CCC3(C)C(=CC(=O)C4C5(C)CCC(=O)OC(C)(C)C5CCC43C)C2C1 (stereo not shown) has % of inhibition of NO2− accumulation (in parentheses) of −2.3 ± 4.6%

Lab note: measured % of inhibition of NO2− accumulation (in parentheses) of C=C(C)C1CCC2(C)C(C(=O)C=C3C4CC(C)(C(=O)O)CCC4(C)CCC32C)C1(C)CCC(=O)OC(C)C (stereo not shown) was 39.8 ± 5.4%

Lab book: % of inhibition of NO2− accumulation (in parentheses) of CC1(C(=O)Nc2ccccc2)CCC2(C)CCC3(C)C(=CC(=O)C4C5(C)CCC(=O)OC(C)(C)C5CCC43C)C2C1 (stereo not shown) noted as 20.5 ± 2.7%

Lookup result for CC1(C)C(=O)CC[C@]2(C)[C@H]3C(=O)C=C4[C@@H]5C[C@@](C)(C(=O)O)CC[C@]5(C)CC[C@@]4(C)[C@]3(C)CC[C@@H]12 ; measured % of inhibition of NO2− accumulation (in parentheses): 45.6 ± 9.1%

// sample C=C(C)C1CCC2(C)C(C(=O)C=C3C4CC(C)(C(=O)O)CCC4(C)CCC32C)C1(C)CCC(=O)OC (stereo not shown) , its % of inhibition of NO2− accumulation (in parentheses) was 29.6 ± 10.0%
